# Target Or System: RAC-alpha serine/threonine-protein kinase (Homo sapiens, UniProt P31749)
# Sequence (P31749 whole entry): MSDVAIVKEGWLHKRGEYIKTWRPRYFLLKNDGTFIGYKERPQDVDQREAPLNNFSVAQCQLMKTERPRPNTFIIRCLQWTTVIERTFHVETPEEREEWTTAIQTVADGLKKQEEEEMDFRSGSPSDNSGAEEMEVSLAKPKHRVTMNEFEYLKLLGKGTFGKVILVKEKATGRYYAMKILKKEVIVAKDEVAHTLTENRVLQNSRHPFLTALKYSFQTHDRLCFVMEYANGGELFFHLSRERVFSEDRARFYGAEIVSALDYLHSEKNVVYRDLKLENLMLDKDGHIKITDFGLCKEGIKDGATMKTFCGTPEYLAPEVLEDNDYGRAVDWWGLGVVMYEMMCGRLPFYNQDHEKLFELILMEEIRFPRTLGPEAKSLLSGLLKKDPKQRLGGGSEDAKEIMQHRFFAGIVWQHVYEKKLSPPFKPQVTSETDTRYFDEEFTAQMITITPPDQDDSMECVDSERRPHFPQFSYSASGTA
# Assay Comment: AKT Enzyme Assay: A TTP Mosquito liquid handling instrument is used to place 125 nl of the appropriate concentration of inhibitor in 100% DMSO (for a dose response curve calculation) into each well of a 384-well plate. To this reaction components are added to a final volume of 12.5 µl: 0.1 ng/µl His-AKT (Full Length), (Invitrogen, Part # P2999, Lot #641228C). 160 uM ATP (Fluka, 02055) 1 mM DTT (Sigma, D0632) 1 mM MgCl2 (Sigma, M1028) 1 µM substrate peptide (sequence FITC-AHA-[…]-NH2), synthesized by Tufts Peptide Synthesis service. 100 mM HEPES pH 7.5 (Calbiochem, 391338)0.015% Brij-35 (Sigma, B4184)The reaction is incubated for 90 min at 25 C, and then stopped by the addition of 70 µl of Stop buffer (100 mM HEPES pH 7.5, 0.015% Brij-35, 10 mM EDTA (Sigma, E7889)).The plate is read on a Caliper LC 3000 in an Off-Chip mobility shift assay format, using the following parameters for a 12-sipper chip: screening pressure -2.3 psi, upstream voltage -500, and downstream voltage -3000.
Assay Readout: pIC50
Please express pIC50 as -log10 of the molar concentration.

In: Give pIC50 for the following compound: CCc1c(N)ncnc1N1CCC(c2nc(-c3cccc(Cl)n3)cn2CCN2CCC2)CC1
Out: 6.11
